# Method notes: Primary qHTS for delayed death inhibitors of the malarial parasite plastid, 96 hour incubation
# Settings: P. falciparum luciferase reporter growth; series mostly up to 28.7 µM
About 22,000 (6.9%) of roughly 320,000 compounds were called active. Not shown: some 27% with an inconclusive outcome. Calls come from the whole dose curve; as a rule, active = well fitted inhibition curve with a large enough effect; inconclusive = small, poorly fitted or top-dose-only effect, or another doubt; inactive = no such curve, though single readings can be large or run the other way. This is one part of a sample in which actives are shown more often than they occur.
Outcome codes: label 1 for active, label 0 for inactive

{"Molecule": "COc1ccc(CCc2nnc(CCC(=O)NCc3cnn(-c4ccccc4C)c3)o2)cc1", "Classification": "label 1"}
{"Molecule": "Cc1ccc2nc(/C(C#N)=C\\c3ccc(OC(=O)c4cccs4)cc3)[nH]c2c1", "Classification": "label 1"}
{"Molecule": "Cc1sc2ncn(CC(=O)NCCCC(=O)NCc3ccc(F)cc3)c(=O)c2c1C", "Classification": "label 0"}
{"Molecule": "Cc1ccc2nc(S(=O)(=O)O)[nH]c2c1", "Classification": "label 0"}
{"Molecule": "O=C(COc1ccc(S(=O)(=O)N2CCOCC2)cc1Cl)N1CCOCC1", "Classification": "label 0"}
{"Molecule": "COC(=O)c1sc(N)c(C(=O)OC)c1COC(=O)CNS(=O)(=O)c1ccc(C)cc1", "Classification": "label 0"}
{"Molecule": "C=CCn1c(SCC(=O)NC(=O)Cc2ccccc2)nc2ccccc2c1=O", "Classification": "label 0"}
{"Molecule": "COc1ccc(CNC(=O)CCN2C(=O)c3ccccc3C2=O)cc1", "Classification": "label 0"}
{"Molecule": "CCOC(=O)c1c(N=CN(C)C)c(C#N)c2n1CCCC2", "Classification": "label 0"}
{"Molecule": "CCSc1ncnc2c(C#N)c3n(c12)CCCCC3", "Classification": "label 1"}
{"Molecule": "CCOC(=O)C(O)(c1ccc(N)c(OC)c1)C(F)(F)F (stereo not drawn)", "Classification": "label 1"}
{"Molecule": "CSC(=S)N/N=C/c1c[nH]c2ccccc12", "Classification": "label 0"}
{"Molecule": "CCOC(=O)C(O)(c1ccc(N=Cc2ccccc2O)c(C)c1)C(F)(F)F (stereo not drawn)", "Classification": "label 0"}
{"Molecule": "Nc1ccn(C2CC(O)C(CO)O2)c(=O)n1 (stereo not drawn)", "Classification": "label 0"}
{"Molecule": "Cc1cccc(C(=O)Nc2ccc(C(=O)N/N=C/c3cccc(C)n3)cc2)c1", "Classification": "label 0"}
{"Molecule": "CCN(CC(=O)Nc1ccccc1C(F)(F)F)C(=O)CSCc1c(C)noc1C", "Classification": "label 0"}
{"Molecule": "CSc1nc(C)nc2c1c(=O)n(C)c(=O)n2C", "Classification": "label 0"}
{"Molecule": "COc1ccc(OC)c(NC(=O)CN(C)CCOc2ccc(Br)cc2)c1", "Classification": "label 0"}
{"Molecule": "O=C(Cc1ccc(S(=O)(=O)N2CCOCC2)s1)N1CCN(c2ccc(C(F)(F)F)cc2[N+](=O)[O-])CC1", "Classification": "label 1"}
{"Molecule": "CCCCOc1ccc(NC(=O)[C@@H]2CCCN2C(=O)C2CCN(S(=O)(=O)c3ccc(C)cc3)CC2)cc1", "Classification": "label 1"}
{"Molecule": "c1nnc2c3c4c(sc3ncn12)CCC4", "Classification": "label 0"}
{"Molecule": "CC1=C(C(N)=O)C(c2ccc(F)cc2)n2nc(CCCO)nc2N1 (stereo not drawn)", "Classification": "label 0"}
{"Molecule": "CC(O)c1nc2c(c(=O)n(C)c(=O)n2C)n1C (stereo not drawn)", "Classification": "label 0"}
